Target: G12V antigen peptide presented on SW620-DPB cells (SW620 expressing HLA-DPB1*03:01) (human)
Experiment: cell-based or functional assay
The following binders are shown together with reported EC50 µg/ml (Functional Avidity) values.
All answers are understood in µg/mL, so give the number only.

Worked examples follow.
β56Q-W (TCR) TCR alpha: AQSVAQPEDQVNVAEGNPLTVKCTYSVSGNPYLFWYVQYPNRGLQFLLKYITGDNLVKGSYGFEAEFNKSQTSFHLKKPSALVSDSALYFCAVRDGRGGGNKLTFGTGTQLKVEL TCR beta: GITQSPKYLFRKEGQNVTLSCEQNLNHDAMYWYRQDPGQGLRLIYYSQIVNDFWKGDIAEGYSVSREKKESFPLTVTSAQKNPTAFYLCASSPGQRDNSPLHFGNGTRLTVT
0.556
α51I-W (TCR) TCR alpha: AQSVAQPEDQVNVAEGNPLTVKCTYSVSGNPYLFWYVQYPNRGLQFLLKYWTGDNLVKGSYGFEAEFNKSQTSFHLKKPSALVSDSALYFCAVRDGRGGGNKLTFGTGTQLKVEL TCR beta: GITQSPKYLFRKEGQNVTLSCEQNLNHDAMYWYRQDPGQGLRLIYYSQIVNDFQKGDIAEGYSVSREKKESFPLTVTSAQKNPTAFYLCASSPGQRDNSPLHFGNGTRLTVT
1.24

# next binder below
Field EC50 µg/ml (Functional Avidity) (entry α52T-A (TCR) TCR alpha: AQSVAQPEDQVNVAEGNPLTVKCTYSVSGNPYLFWYVQYPNRGLQFLLKYIAGDNLVKGSYGFEAEFNKSQTSFHLKKPSALVSDSALYFCAVRDGRGGGNKLTFGTGTQLKVEL TCR beta: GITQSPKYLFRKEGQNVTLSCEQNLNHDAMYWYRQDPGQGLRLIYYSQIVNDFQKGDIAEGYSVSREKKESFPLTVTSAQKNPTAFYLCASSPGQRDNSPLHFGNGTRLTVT ) reads 1.56
